These entries and their values trace back to ChEMBL document CHEMBL1139698.

This listing pairs compounds with measured Selectivity ratio.
species: Homo sapiens; experiment: Selectivity for MMP13 over MMP12

{"columns": ["Compound", "Selectivity ratio"],
 "data": [
  ["CCOCCC1(Oc2ccc(Oc3ccc(C(=O)NCc4ccccc4)cc3)cc2)C(=O)NC(=O)NC1=O", 27],
  ["CCOCCC1(Oc2ccc(Oc3ccc(-c4nc(-c5ccccc5)no4)cc3)cc2)C(=O)NC(=O)NC1=O", 138],
  ["CCOCCC1(Oc2ccc(Oc3ccc(-c4nc(-c5cccnc5)no4)cc3)cc2)C(=O)NC(=O)NC1=O", 504],
  ["CCOCCC1(Oc2ccc(Oc3ccc(-c4nnc(-c5ccccc5)o4)cc3)cc2)C(=O)NC(=O)NC1=O", 126],
  ["CCOCCC1(Oc2ccc(Oc3ccc(-c4ncc(-c5ccccc5)o4)cc3)cc2)C(=O)NC(=O)NC1=O", 103],
  ["CCOCCC1(Oc2ccc(Oc3ccc(C(=O)Nc4ccccn4)cc3)cc2)C(=O)NC(=O)NC1=O", 27],
  ["CCOCCC1(Oc2ccc(Oc3ccc(-c4nc(-c5ccccn5)co4)cc3)cc2)C(=O)NC(=O)NC1=O", 158],
  ["COCCC1(Oc2ccc(Oc3ccc(-c4nc(-c5ccc(C#N)cc5)co4)cc3)cc2)C(=O)NC(=O)NC1=O", 619],
  ["CCOCCC1(Oc2ccc(Oc3ccc(-c4cc(-c5ccccc5)no4)cc3)cc2)C(=O)NC(=O)NC1=O", 38],
  ["CCOCCC1(Oc2ccc(Oc3ccc(-c4cnc(-c5ccccc5)o4)cc3)cc2)C(=O)NC(=O)NC1=O", 309],
  ["CCOCCC1(Oc2ccc(Oc3ccc(-c4noc(-c5ccccc5)n4)cc3)cc2)C(=O)NC(=O)NC1=O", 37],
  ["COCCC1(Oc2ccc(Oc3ccc(-c4nc(-c5ccc(F)cc5)co4)cc3)cc2)C(=O)NC(=O)NC1=O", 960],
  ["CCOCCC1(Oc2ccc(Oc3ccc(C(=O)Nc4ccccc4)cc3)cc2)C(=O)NC(=O)NC1=O", 50],
  ["COCCC1(Oc2ccc(Oc3ccc(-c4nc(-c5ccccc5C#N)co4)cc3)cc2)C(=O)NC(=O)NC1=O", 342],
  ["CCOCCC1(Oc2ccc(Oc3ccc(-c4nc(-c5ccncc5)co4)cc3)cc2)C(=O)NC(=O)NC1=O", 530],
  ["CCOCCC1(Oc2ccc(Oc3ccc(-c4nc(-c5ccccc5)co4)cc3)cc2)C(=O)NC(=O)NC1=O", 259],
  ["CCOCCC1(Oc2ccc(Oc3ccc(-c4nc(-c5ccc(F)cc5)co4)cc3)cc2)C(=O)NC(=O)NC1=O", 573]
]}

###

species: Homo sapiens; assay: Selectivity for MMP13 over MMP2
This listing pairs compounds with measured Selectivity ratio.

{"columns": ["Compound", "Selectivity ratio"],
 "data": [
  ["COCCC1(Oc2ccc(Oc3ccc(-c4nc(-c5ccc(C#N)cc5)co4)cc3)cc2)C(=O)NC(=O)NC1=O", 397],
  ["CCOCCC1(Oc2ccc(Oc3ccc(-c4nc(-c5ccncc5)no4)cc3)cc2)C(=O)NC(=O)NC1=O", 291],
  ["CCOCCC1(Oc2ccc(Oc3ccc(C(=O)Nc4cccnc4)cc3)cc2)C(=O)NC(=O)NC1=O", 63]
]}

###

biological target: Collagenase 3 (Homo sapiens, UniProt P45452)
pIC50: −log10 of the molar value.
This listing pairs molecules with measured pIC50.

{"columns": ["Compound", "pIC50"],
 "data": [
  ["CCOCCC1(Oc2ccc(Oc3ccc(-c4nc(-c5cccc(F)c5)no4)cc3)cc2)C(=O)NC(=O)NC1=O", 8.11],
  ["CCOCCC1(Oc2ccc(Oc3ccc(-c4nc(-c5ccccc5F)co4)cc3)cc2)C(=O)NC(=O)NC1=O", 9.03],
  ["COCCC1(Oc2ccc(Oc3ccc(-c4nc(-c5cccc(C#N)c5)co4)cc3)cc2)C(=O)NC(=O)NC1=O", 9.20],
  ["CCOCCC1(Oc2ccc(Oc3ccc(C(=O)Nc4ccccc4)cc3)cc2)C(=O)NC(=O)NC1=O", 9.08],
  ["CCOCCC1(Oc2ccc(Oc3ccc(-c4nc(-c5cccnc5)co4)cc3)cc2)C(=O)NC(=O)NC1=O", 9.47],
  ["CCOCCC1(Oc2ccc(Oc3ccc(C(=O)NCc4ccccn4)cc3)cc2)C(=O)NC(=O)NC1=O", 8.21],
  ["COCCC1(Oc2ccc(Oc3ccc(-c4nc(-c5ccccc5F)co4)cc3)cc2)C(=O)NC(=O)NC1=O", 8.85],
  ["CCOCCC1(Oc2ccc(Oc3ccc(C(=O)NCc4ccc(F)cc4)cc3)cc2)C(=O)NC(=O)NC1=O", 8.47],
  ["CCOCCC1(Oc2ccc(Oc3ccc(-c4nc(-c5ccncc5)co4)cc3)cc2)C(=O)NC(=O)NC1=O", 9.40]
]}
